Tested on: MDA-N
Assay: NCI tumour cell line growth inhibition, 48 h
Active and inactive are the calls of the source. Rule as the data show it: active = GI50 up to about 1.1 µM and inactive = higher.
Exercise: state measured GI50 for each of the molecules provided.

For the molecule `CCC(c1c[nH]c2ccc(Br)cc12)c1c[nH]c2ccc(Br)cc12` , what GI50 is on record?
4.33 µM (inactive)

For the molecule `CC(CO)(CO)Nc1ncnc2ccccc12` , what GI50 is on record?
> 100 µM (inactive)

For the molecule `COC(=O)/C=C(/C(=O)OC)c1cc2ccc3c([nH]c4ccccc43)c(C)c-2c1` , what GI50 is on record?
2.9 µM (inactive)

For the molecule `O=C(Nc1nn(C(=O)c2cccnc2)c(=O)s1)c1ccc(Cl)cc1` , what GI50 is on record?
> 100 µM (inactive)

For the molecule `O=C1C=C(O)C(=O)c2c(O)ccc(O)c21` , what GI50 is on record?
> 100 µM (inactive)

For the molecule `N#Cc1c(NC(=S)NC(=O)c2ccccc2)nc2c(c1-c1ccccc1)CCC2` , what GI50 is on record?
> 100 µM (inactive)

For the molecule `CN(C)/C=N/c1ccc2nonc2c1` , what GI50 is on record?
> 100 µM (inactive)

For the molecule `C/C(=C\CO)CC[C@@H]1[C@@]2(C)CCCC(C)(C)[C@@H]2CC[C@@]1(C)O` , what GI50 is on record?
18.7 µM (inactive)

For the molecule `N=C(N)/N=C(\N)Nc1cnccn1` , what GI50 is on record?
> 100 µM (inactive)

For the molecule CN1C(=O)c2ccccc2OC12C=Cc1c(ccc3ccccc13)O2 (configuration not stated) , what GI50 is on record?
2.36 µM (inactive)

For the molecule `COc1cc(-c2c3c([nH]c(=O)c2C#N)-c2cc([N+](=O)[O-])ccc2CCC3)cc(OC)c1OC` , what GI50 is on record?
21.1 µM (inactive)

For the molecule CC1(c2nc3ccccc3[nH]2)CCC(C(=O)O)C(C)(C)O1 (configuration not stated) , what GI50 is on record?
> 100 µM (inactive)

====

System: HCT-116
Assay: NCI tumour cell line growth inhibition, 48 h
The source made the active and inactive calls. Rule as the data show it: active = GI50 up to about 1.1 µM and inactive = higher.
Assign a class; possible classes are class 1 = active, class 0 = inactive

Recorded call for CC(=O)OCC1=C(C(=O)O)C(c2ccc3c(c2)OCO3)c2cc3c(cc2O1)OCO3 (stereo not given) ?
class 0

Recorded call for `O=c1c2c(nc3[nH]ccn13)CCC2` ?
class 0

Recorded call for Nc1nc(Cl)cc(NCC2(O)CC(CO)C2)n1 (stereo not given) ?
class 0

Recorded call for `Nc1cc(Cl)ccc1SSc1ccc(Cl)cc1N` ?
class 0

Recorded call for `CN(C)CCNC(=O)c1cccc2nc3cc(Cl)ccc3nc12` ?
class 1

Recorded call for `N#Cc1c(-c2ccc(Cl)cc2)c2c([nH]c1=O)-c1ccccc1SC2` ?
class 0

Recorded call for CC(C)CCCC(C)[C@H]1CCC2[C@@H]3CCC4Nc5nocc5C[C@]4(C)C3CC[C@@]21C (stereo not given in full) ?
class 0

Recorded call for `C/C(=C\CO)CC[C@@H]1[C@@]2(C)CCCC(C)(C)[C@@H]2CC[C@@]1(C)O` ?
class 0

Recorded call for `CCc1nnc(S)n1/N=C\c1ccc(-c2ccccc2Cl)o1` ?
class 0

Recorded call for `CCOC(=O)/C(C(=O)NC(C)C)=C(/N)N1CCOCC1` ?
class 0

Recorded call for `c1cc(CSP234N5CCN2CCN3CCN4CC5)ccc1CSP123N4CCN1CCN2CCN3CC4` ?
class 0

Recorded call for COc1cc(S(=O)(=O)Nc2ccc(-c3csc(N4C(=O)CSC4c4ccccc4)n3)cc2)ccc1Cl (stereo not given) ?
class 0

Recorded call for COc1cc(CC2c3cc(OC)c(OC)cc3CCN2C)c(Oc2cc3c(cc2OC)-c2c(OC)c(OC)c(OC)c4c2C(C3)N(C)CC4)cc1OC (stereo not given) ?
class 0

Recorded call for O=C(CC1Sc2ccccc2NC1=O)Nc1ccc([N+](=O)[O-])cc1[N+](=O)[O-] (stereo not given) ?
class 0

Recorded call for `O=C(Sc1c(-c2ccccc2)c(=O)n(-c2ccccc2)c(=S)n1-c1ccccc1)c1ccccc1` ?
class 0

Origin of values: ChEMBL document CHEMBL1201862
